- test_details: Half life in monkey at 5 mg/kg
- Type: ADME, organism-based, Macaca mulatta
- Design: dose 5 mg/kg
- condition_label: rhesus monkey, in vivo

[
  {
    "structure_smiles_string": "O=C(N[C@@H]1CCCc2c1[nH]c1ccc(Cl)cc21)c1ccccn1",
    "half-life": "3.6 h"
  }
]

----------
- test_details: Bioavailability in rat
- Type: ADME, organism-based
- condition_label: in vivo

[
  {
    "compound": "Brc1ccc2[nH]c3c(c2c1)CCCC3Nc1ccccc1 (stereo unspecified)",
    "bioavailability": "< 5%"
  }
]

----------
- experimental_target: Voltage-gated inwardly rectifying potassium channel KCNH2 (Homo sapiens, UniProt Q12809)
- Sequence (Q12809 whole entry): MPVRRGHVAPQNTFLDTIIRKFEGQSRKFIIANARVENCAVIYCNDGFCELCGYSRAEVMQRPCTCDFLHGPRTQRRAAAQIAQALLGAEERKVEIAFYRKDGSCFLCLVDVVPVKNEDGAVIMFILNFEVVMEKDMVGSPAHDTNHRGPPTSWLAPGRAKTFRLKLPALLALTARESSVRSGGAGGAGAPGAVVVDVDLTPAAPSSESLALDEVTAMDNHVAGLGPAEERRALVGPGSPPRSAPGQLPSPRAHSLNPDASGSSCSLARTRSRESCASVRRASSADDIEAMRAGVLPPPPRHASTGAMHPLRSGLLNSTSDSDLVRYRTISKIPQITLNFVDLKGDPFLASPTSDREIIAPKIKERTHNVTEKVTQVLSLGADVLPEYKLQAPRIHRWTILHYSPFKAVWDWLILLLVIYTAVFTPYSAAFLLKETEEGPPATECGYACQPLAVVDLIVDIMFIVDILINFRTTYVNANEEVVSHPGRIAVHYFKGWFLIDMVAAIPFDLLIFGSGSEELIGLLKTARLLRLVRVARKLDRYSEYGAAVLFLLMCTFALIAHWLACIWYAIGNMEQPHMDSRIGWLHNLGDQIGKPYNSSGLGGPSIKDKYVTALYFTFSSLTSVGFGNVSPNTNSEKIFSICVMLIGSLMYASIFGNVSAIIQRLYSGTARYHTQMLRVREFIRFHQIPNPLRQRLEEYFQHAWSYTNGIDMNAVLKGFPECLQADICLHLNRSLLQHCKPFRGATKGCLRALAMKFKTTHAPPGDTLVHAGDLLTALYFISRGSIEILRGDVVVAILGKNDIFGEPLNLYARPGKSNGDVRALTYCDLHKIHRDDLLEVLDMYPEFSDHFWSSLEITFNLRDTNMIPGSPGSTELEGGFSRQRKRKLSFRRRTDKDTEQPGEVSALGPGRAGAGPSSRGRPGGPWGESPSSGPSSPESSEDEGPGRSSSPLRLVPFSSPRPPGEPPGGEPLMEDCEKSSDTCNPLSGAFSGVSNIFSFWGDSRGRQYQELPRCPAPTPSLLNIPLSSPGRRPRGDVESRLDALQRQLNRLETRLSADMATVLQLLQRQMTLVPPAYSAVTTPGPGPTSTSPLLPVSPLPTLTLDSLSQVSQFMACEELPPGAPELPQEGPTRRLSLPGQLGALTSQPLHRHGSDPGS

[
  {
    "structure_smiles_string": "O=C(N[C@@H]1CCCc2c1[nH]c1ccc(Cl)cc21)c1ccccc1F",
    "IC50": "> 20 µM"
  }
]

----------
- test_details: Oral bioavailability in rat at 10 mg/kg
- Type: ADME, organism-based
- condition_label: in vivo
observable: bioavailability

[
  {
    "structure_smiles_string": "O=C(N[C@@H]1CCCc2c1[nH]c1ccc(Cl)cc21)c1ccccn1",
    "observable": "bioavailability",
    "result": "56%"
  }
]

----------
- test_details: Half life in rat at 10 mg/kg
- Format: ADME, organism-based
- Design: dose 10 mg/kg
- condition_label: in vivo

[
  {
    "structure_smiles_string": "O=C(N[C@@H]1CCCc2c1[nH]c1ccc(Cl)cc21)c1ccccn1",
    "half-life (h)": 4.1
  }
]

----------
- test_details: Volume of distribution at steady state in monkey at 2 mg/kg, iv
- Type: ADME, organism-based, Macaca mulatta
- Design: dose 2 mg/kg, route intravenous
- condition_label: rhesus monkey, in vivo, read-out: Vdss

[
  {
    "structure_smiles_string": "O=C(N[C@@H]1CCCc2c1[nH]c1ccc(Cl)cc21)c1ccccn1",
    "Vd": "0.13 L/kg"
  }
]

----------
- test_details: Cytotoxicity against HFF cells
- Assay type: cell-based
- condition_label: human
Mark 1 only for CC50 values smaller than 60 µM; exact matches and larger values are 0.

[
  {
    "compound": "COc1ccc(C(=O)NC2CCCc3c2[nH]c2ccc(Br)cc32)cc1 (racemic)",
    "class_label": 0
  },
  {
    "compound": "O=C(NC1CCCc2c1[nH]c1ccc(Br)cc21)c1ccccn1 (racemic)",
    "class_label": 0
  },
  {
    "compound": "Brc1ccc2[nH]c3c(c2c1)CCCC3Nc1ncccn1 (stereo unspecified)",
    "class_label": 0
  },
  {
    "compound": "O=C(NC1CCCc2c1[nH]c1ccc(Br)cc21)c1ccncc1 (racemic)",
    "class_label": 0
  },
  {
    "compound": "O=C(N[C@H]1CCCc2c1[nH]c1ccc(Cl)cc21)c1ccccc1",
    "class_label": 1
  },
  {
    "compound": "Brc1ccc2[nH]c3c(c2c1)CCCC3Nc1ccccc1 (stereo unspecified)",
    "class_label": 1
  },
  {
    "compound": "O=C(N[C@@H]1CCCc2c1[nH]c1ccc(Cl)cc21)c1ccccn1",
    "class_label": 1
  }
]

----------
- test_details: Oral bioavailability in dog at 5 mg/kg
- Format: ADME, organism-based, Canis lupus familiaris
- condition_label: in vivo

[
  {
    "structure_smiles_string": "O=C(N[C@@H]1CCCc2c1[nH]c1ccc(Cl)cc21)c1ccccn1",
    "value_units": "%",
    "bioavailability": 35
  }
]
